Test description: Oral exposure in cynomolgus monkeys, compound alone or with excipient in capsules; plasma by LC-MS/MS
Type: in vivo
Condition details: male, cynomolgus monkey, plasma, po, 10 mg, oral, enteric capsule, dose 10 mg, with 195 mg sodium citrate, fasted; read-out: Cmax
Value kind: Cmax (ng/mL)

1) C[C@H](Nc1nc(Cl)nc2c1cnn2[C@@H]1O[C@H](COP(=O)(O)CP(=O)(O)O)[C@@H](O)[C@H]1O)c1ccccc1 [2 (Na)]    791

---

Test description: Oral exposure in cynomolgus monkeys, compound alone or with excipient in capsules; plasma by LC-MS/MS
Assay type: in vivo
Condition details: male, cynomolgus monkey, plasma, po, 50 mg, Table 4: dose 50 mg, dosed with 275 mg sodium phytate, enteric capsules
Quick list: AUC(0-inf) per entry.
Value kind: AUC(0-inf) (µg·h/mL)

1. C[C@H](Nc1cc(Cl)nc2c1cnn2[C@@H]1O[C@H](COP(=O)(O)CP(=O)(O)O)[C@@H](O)[C@H]1O)c1ccccc1F [Compound (Ia)]    122
2. C[C@H](Nc1nc(Cl)nc2c1cnn2[C@@H]1O[C@H](COP(=O)(O)CP(=O)(O)O)[C@@H](O)[C@H]1O)c1ccccc1 [Compound 2]    105
3. C[C@H](Nc1cc(Cl)nc2c1cnn2[C@@H]1O[C@H](COP(=O)(O)CP(=O)(O)O)[C@@H](O)[C@H]1O)c1ccc(F)cc1 [Compound 3]    149
